Data credit: PubChem BioAssay (NCI)

# Test system: HCT-116 colon
# assay_text: NCI-60 one-dose screen, 48 h
# experimental_parameters: 10 µM unless noted
About 83,000 compounds went through this panel and 20% of them were active in at least one assay; those are over-represented in the sample as a whole. Calls of active or inactive are those of the source. The calls were made as follows: active = growth percent below 10; inactive = the rest.
Could you please pick one outcome from this set? true (1) for active, false (0) for inactive

Check the results log: what was the call for CCC1=CC2CN(C1)Cc1c([nH]c3ccccc13)[C@@](C(=O)OC)(c1cc3c(cc1OC)N(C)[C@H]1[C@@](O)(C(=O)OC)[C@H](OC(C)=O)[C@]4(CC)C=CCN5CC[C@]31[C@@H]54)C2 (some centres undefined) ?
true (1)

Check the results log: what was the call for CC(C)[C@@]12C[C@@H](OC(=O)C3CO3)[C@@](C)(O1)[C@@H]1CC[C@@H](C)[C@H]1[C@@H]2OC(=O)/C=C/c1ccccc1 (some centres undefined) ?
false (0)

Check the results log: what was the call for O=C1NN(C(=O)c2ccccc2)C(c2ccc(Cl)c(Cl)c2)=C/C1=C\c1ccccc1[N+](=O)[O-] ?
true (1)

Check the results log: what was the call for Brc1ccsc1Br ?
false (0)

====

Exercise: state measured growth for each of the molecules provided.
# System: HCC-2998 colon
# assay_text: NCI-60 one-dose screen, 48 h (100 = growth as untreated, 0 = no growth, -100 = all killed)
# experimental_parameters: 10 µM unless noted
Compounds without any hit were thinned out: in the full panel of roughly 83,000, 20% have a hit.
The reply should be a number in %, with the unit left off.

For Cc1ccc(C(=O)CC(=O)C(F)(F)C(F)(F)C(F)(F)F)s1 , what is its reported growth?
105

For CCN(CC)CCNC(=O)C(F)(F)C(F)(F)C(F)(F)F , what is its reported growth?
105

For COc1cc(OC)c(C(=O)/C=C/c2cccc(OC(C)=O)c2)cc1CC=C(C)C , what is its reported growth?
72.9

For C=C1C(=O)O[C@H]2[C@H]1CC/C(COC(=O)N[C@@H](Cc1c[nH]c3ccccc13)C(=O)OC)=C\CC[C@@]1(C)O[C@@H]21 , what is its reported growth?
82.4

For O=C(NCCN1CCCCC1)n1cc(-c2ccncc2)c(-c2ccc(Cl)c(O)c2)n1 , what is its reported growth?
113

For FC(F)(F)c1nn[nH]n1 , what is its reported growth?
98.1

For O=C(/C=C/c1ccc(F)cc1)N1CCN(C(=O)/C=C/c2ccc(C(F)(F)F)cc2)CC1 , what is its reported growth?
102

For CC(=O)Oc1c(Cl)c(Cl)c(Cl)c(Cl)c1Cl , what is its reported growth?
94.9

For Cc1cccc(/C=N/n2c(-c3ccc(Cl)cc3)nc3c(Br)cc(Br)cc3c2=O)c1 , what is its reported growth?
55.6

For COc1ccc2nc(C)cc(Sc3nc4ccccc4s3)c2c1 , what is its reported growth?
73.8

====

# System: NCI-H522 lung
# assay_text: NCI-60 one-dose screen, 48 h
# experimental_parameters: 10 µM unless noted
The panel holds about 83,000 compounds, 20% with a hit somewhere; the sample as a whole holds those more often. Activity calls are given as the source filed them. How the source made its calls: active means growth percent below 10; inactive means the rest.
Could you please pick one outcome from this set? 1 (active), -1 (inactive)

Check the results log: what was the call for CC(=O)Cc1ccccn1 ?
-1

Check the results log: what was the call for Cc1nc(N)nc2c1CCC(Nc1ccccc1)S2 (stereo unspecified) ?
-1

Check the results log: what was the call for O=C(c1ccccc1)C1OC1C(=O)c1ccccc1 (stereo unspecified) ?
1

Check the results log: what was the call for O=[N+]([O-])c1ccc(N=Nc2c(NNc3ccc([N+](=O)[O-])cn3)cc(S(=O)(=O)O)c3ccccc23)nc1 ?
-1

Check the results log: what was the call for COc1cc(C)c(Cl)cc1C1=NN(c2ccc(S(N)(=O)=O)cc2)C(/C=C/c2ccccc2)C1 (stereo unspecified) ?
-1

Check the results log: what was the call for CCOC(=O)N1C2CCC(C2)N1C(=O)OCC ?
-1

Check the results log: what was the call for O=[N+]([O-])c1ccc(SSc2ccc([N+](=O)[O-])cc2Cl)c(Cl)c1 ?
-1

Check the results log: what was the call for Cc1ccc(C(=O)CC(=O)C(F)(F)C(F)(F)C(F)(F)F)s1 ?
-1

Check the results log: what was the call for CNCCCn1c2c(c3ccc(Cl)cc3c1=O)C(=O)c1cc(OC)cnc1-2 ?
-1

Check the results log: what was the call for CCN(CC)CCNC(=O)n1cc(-c2ccncc2)c(-c2ccc(Cl)c(OC)c2)n1 ?
-1

Check the results log: what was the call for CCC(=O)OCc1ccc(OC)cc1 ?
-1
